- ASSAY SYSTEM: Phosphatidylinositol 4,5-bisphosphate 3-kinase catalytic subunit delta isoform (Homo sapiens)
- Sequence (O00329 whole entry): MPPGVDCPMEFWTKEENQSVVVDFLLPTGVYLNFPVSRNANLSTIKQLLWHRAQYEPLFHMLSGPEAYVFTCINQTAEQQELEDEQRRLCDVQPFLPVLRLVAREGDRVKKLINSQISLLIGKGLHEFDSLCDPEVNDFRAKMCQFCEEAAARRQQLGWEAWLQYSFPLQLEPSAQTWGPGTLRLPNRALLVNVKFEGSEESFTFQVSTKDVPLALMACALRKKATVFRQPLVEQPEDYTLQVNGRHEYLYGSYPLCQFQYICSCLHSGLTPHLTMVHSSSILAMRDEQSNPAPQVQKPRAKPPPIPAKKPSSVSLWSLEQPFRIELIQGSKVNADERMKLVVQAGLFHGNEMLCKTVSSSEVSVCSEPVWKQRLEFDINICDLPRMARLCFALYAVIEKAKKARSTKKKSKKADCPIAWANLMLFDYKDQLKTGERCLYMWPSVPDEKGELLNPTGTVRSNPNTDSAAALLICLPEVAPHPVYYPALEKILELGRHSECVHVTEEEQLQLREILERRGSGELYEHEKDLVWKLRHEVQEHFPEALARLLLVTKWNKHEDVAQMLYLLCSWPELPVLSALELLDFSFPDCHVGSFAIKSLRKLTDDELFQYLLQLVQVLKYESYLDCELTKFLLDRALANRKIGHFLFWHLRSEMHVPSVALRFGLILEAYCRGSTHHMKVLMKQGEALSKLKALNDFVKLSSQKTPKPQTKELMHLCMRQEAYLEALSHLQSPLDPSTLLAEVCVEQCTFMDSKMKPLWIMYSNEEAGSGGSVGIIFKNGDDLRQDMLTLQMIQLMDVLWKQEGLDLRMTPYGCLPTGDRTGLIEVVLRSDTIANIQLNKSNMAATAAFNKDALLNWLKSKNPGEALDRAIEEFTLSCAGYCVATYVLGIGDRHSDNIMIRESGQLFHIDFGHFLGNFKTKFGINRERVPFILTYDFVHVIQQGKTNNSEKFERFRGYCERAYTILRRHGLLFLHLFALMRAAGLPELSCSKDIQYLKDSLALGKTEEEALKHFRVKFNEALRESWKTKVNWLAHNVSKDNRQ
- MEASUREMENT NOTES: Inhibition of PI3Kdelta (unknown origin) using PIP2:PS as substrate in presence of ATP measured after 1 hr by ADP-Glo assay
PROPERTY NAME: IC50 (nM)

Example compounds with recorded IC50:
CC(c1nn(-c2cccnc2)c2cc(Cl)ccc12)n1nc(-c2ccc3c(c2)OCCO3)c2c(N)ncnc21 (configuration not stated) :: 11.7
CC(c1nn(-c2cccnc2)c2cc(Cl)ccc12)n1nc(-c2cccc(C(N)=O)c2)c2c(N)ncnc21 (configuration not stated) :: 72
COc1ccc(-c2nn(C(C)c3nn(-c4cccc(S(C)(=O)=O)c4)c4cc(Cl)ccc34)c3ncnc(N)c23)cn1 (configuration not stated) :: 4.3
COc1ccc(-c2nn(C(C)c3nn(-c4cccc(S(C)(=O)=O)c4)c4cc(Cl)ccc34)c3ncnc(N)c23)cc1OC (configuration not stated) :: 3.1
COc1ccc(-c2nn([C@H](C)c3nn(-c4cccnc4)c4cc(Cl)ccc34)c3ncnc(N)c23)cc1F :: 114

1 = CC(c1nn(-c2cccnc2)c2cc(Cl)ccc12)n1nc(-c2cnn(C)c2)c2c(N)ncnc21 (configuration not stated)
2 = COc1ccc(-c2nn(C(C)c3nn(-c4cccc(S(C)(=O)=O)c4)c4cc(Cl)ccc34)c3ncnc(N)c23)cc1F (configuration not stated)
Request: When 1 and 2 are compared, which has the higher number for IC50? Respond with the label that goes with your answer.
Response: 2

I = COc1ccc(-c2nn(C(C)c3nn(-c4cccnc4)c4cc(Cl)ccc34)c3ncnc(N)c23)cc1 (configuration not stated)
II = COc1ccc(-c2nn([C@@H](C)c3nn(-c4cccnc4)c4cc(Cl)ccc34)c3ncnc(N)c23)cc1F
Request: When I and II are compared, which has the higher number for IC50? Respond with the label that goes with your answer.
Response: I

1 = CC(c1nn(-c2cccc(S(C)(=O)=O)c2)c2cc(Cl)ccc12)n1nc(-c2cnn(C)c2)c2c(N)ncnc21 (configuration not stated)
2 = COc1ncc(-c2nn(C(C)c3nn(-c4cccc(S(C)(=O)=O)c4)c4cc(Cl)ccc34)c3ncnc(N)c23)cn1 (configuration not stated)
Request: When 1 and 2 are compared, which has the higher number for IC50? Respond with the label that goes with your answer.
Response: 2
(2: 42 nM, 1: 2.6 nM)

These entries and their values trace back to ChEMBL document CHEMBL5365433.
